Biological target: PD-1 (UniProt Q15116 25-167, limits assumed)
Sequence (Q15116 25-167 limits assumed): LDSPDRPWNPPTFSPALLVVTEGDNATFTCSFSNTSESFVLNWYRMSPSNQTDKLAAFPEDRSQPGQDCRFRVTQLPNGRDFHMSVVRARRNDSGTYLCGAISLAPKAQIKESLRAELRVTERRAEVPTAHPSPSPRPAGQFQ
Test: ELISA, conjugate vs WT antibody

BINDER	binding activity (% of WT)
anti-PD-1 antibody 1 heavy chain K63C-R4-7 (antibody, human IgG4 S228P, kappa, V domains shown, R4-7 on Cys 63) VH: QVQLVQSGVEVKKPGASVKVSCKASGYTFTNYYMYWVRQAPGQGLEWMGGINPSNGGTNFNECFKNRVTLTTDSSTTTAYMELKSLQFDDTAVYYCARRDYRFDMGFDYWGQGTTVTVSS VL: EIVLTQSPATLSLSPGERATLSCRASKGVSTSGYSYLHWYQQKPGQAPRLLIYLASYLESGVPARFSGSGSGTDFTLTISSLEPEDFAVYYCQHSRDLPLTFGGGTKVEIKR	95.2%
